Hi there, I'd appreciate the recorded pIC50 for every entry that follows.
target: Gag-Pol polyprotein (Human immunodeficiency virus type 1 group M subtype B (isolate NY5), UniProt P12497); assay: RNase H (RH) Assay; details: pH 7.8; 37 °C
// field semantics: pIC50 = negative decimal log of concentration (mol/L)

Incoming: Entry under review: Cn1c(=O)c2c(nc3n2CC(O)CN3c2ccc(O)cc2)n(C)c1=O (stereo not given) [MAS0 (1)] . Reported pIC50?
Outgoing: 4.00

Incoming: Continue with CCOC(=O)C(=O)CC(=O)/C=C/c1cccn1Cc1ccccc1Cl [RDS1759]
Outgoing: 5.12

Incoming: Continue with CCCCCn1c(=O)c2c(nc3n2CC(C)CN3c2ccc(OC)cc2)n(C)c1=O (stereo not given) [STOCK4S-37006 (4)]
Outgoing: 4.01

Incoming: Continue with CCOc1ccc(N2CC(O)Cn3c2nc2c3c(=O)n(CC(=O)OCc3ccccc3)c(=O)n2C)cc1 (stereo not given) [STOCK4S-60534 (6)]
Outgoing: 4.48

Incoming: Continue with CCCCCn1c(=O)c2c(nc3n2CCCN3c2ccc(Oc3ccccc3)cc2)n(C)c1=O [STOCK5S-18255 (2)]
Outgoing: 4.60

----------
target: Gag-Pol polyprotein (Human immunodeficiency virus type 1 group M subtype B (isolate NY5), UniProt P12497); assay: RNA-dependent DNA Polymerase (RDDP) Assay; settings: pH 8.1; 37 °C
pIC50: −log10 of the molar value.
Hi there, I'd appreciate the recorded pIC50 for every entry that follows.

Incoming: Entry under review: Cn1c(=O)c2c(nc3n2CC(O)CN3c2ccc(O)cc2)n(C)c1=O (stereo not drawn) [MAS0 (1)] . Reported pIC50?
Outgoing: < 4.00

Incoming: Continue with CCc1ccc(N2CC(O)Cn3c2nc2c3c(=O)n(C)c(=O)n2C)cc1 (stereo not drawn) [STOCK2S-18057 (3)]
Outgoing: < 4.00

Incoming: Continue with CCOc1ccc(N2CC(O)Cn3c2nc2c3c(=O)n(CC(N)=O)c(=O)n2C)cc1 (stereo not drawn) [STOCK5S-55040 (5)]
Outgoing: < 4.00
